- TARGET_ENTITY: BRD2-BD1 (Homo sapiens, UniProt P25440)
- Construct: two similar tandem bromodomains (BD1 and BD2)
- Sequence (P25440 74-180 limits assumed): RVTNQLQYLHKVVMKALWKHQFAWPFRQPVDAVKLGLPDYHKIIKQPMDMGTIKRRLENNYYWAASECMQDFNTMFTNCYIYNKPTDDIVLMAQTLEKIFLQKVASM
- ASSAY_NAME: BromoKdELECT assay
- RUN_PARAMETERS: BromoKdELECT
pKd: −log10 of the molar value.

>  <MOLECULAR_STRING>
CNC(=O)[C@@H](CC1CCN(C(=O)Cc2ccc3[nH]c(=O)cc(C)c3c2)CC1)NC(=O)c1ccc(-c2ccc(C)cc2C)cn1

>  <pKd>
9.59

$$$$

###

- ASSAY_NAME: Metabolic stability assay in liver microsomes (MLM)
- Assay type: in vitro ADME
- RUN_PARAMETERS: mouse liver microsomes 0.5 mg protein/mL, compound 2.0 μM, NADPH 1.0 mM; read-out: MLM t1/2 (half-life)

>  <MOLECULAR_STRING>
CNC(=O)[C@@H](CC1CCN(C(=O)Cc2ccc3[nH]c(=O)cc(C)c3c2)CC1)NC(=O)c1ccc(-c2ccc(C)cc2C)cn1

>  <half-life at 2 μM / min>
13

$$$$
>  <MOLECULAR_STRING>
CNC(=O)[C@@H](CC1CCN(C(=O)Cc2ccc3[nH]c(=O)cc(C)c3c2)CC1)NC(=O)c1ccc(-c2ccccc2)cn1

>  <half-life at 2 μM / min>
35

$$$$
